target: HLA-A*11:01; assay: IEDB peptide-MHC binding, purified MHC/direct/fluorescence; filed as Kd, often an IC50 or EC50 that approximates it; bounds were set here for any values at or beyond the usual limits of such assays; conditions: source organism: Shewanella violacea
quantity-kind: Kd

Prompt: Give the measured Kd of ETKGKRRLL .
Response: ≥ 20 µM

###

target: HLA-A*31:01; experiment: IEDB peptide-MHC binding, purified MHC/competitive/radioactivity; filed as Kd, often an IC50 or EC50 that approximates it; bounds were set here for any values at or beyond the usual limits of such assays; conditions: source organism: Dengue virus 3 Martinique/1243/1999
quantity-kind: pKd
Note on units: pKd is unitless, being -log10 of a concentration expressed in mol/L.

RTLGRNKKPR 8.08
VSILASSLLR 6.06

Now look at this one.
Prompt: Please look up its pKd: TSEHGGRAYR
Response: 7.14

###

target: HLA-A*01:01; assay: IEDB peptide-MHC binding, purified MHC/competitive/fluorescence; filed as Kd, often an IC50 or EC50 that approximates it; bounds were set here for any values at or beyond the usual limits of such assays; conditions: source organism: Influenza A virus (A/Fort Monmouth/1/1947-mouse adapted(H1N1))
quantity-kind: Kd (µM)
Give the quantity in µM, number only.

Prompt: Form entry - test system: HLA-A*01:01; read-out: Kd; sequence: FTSFFYRY
Response: 1.28

###

molecular target: HLA-A*03:01; experiment: IEDB peptide-MHC binding, purified MHC/competitive/radioactivity; filed as Kd, often an IC50 or EC50 that approximates it; bounds were set here for any values at or beyond the usual limits of such assays; settings: source organism: Lassa virus Josiah
quantity-kind: Kd (µM)
Field format: number, assumed µM, no unit text.

Prompt: Give the measured Kd of TSFYLISIFL .
Response: 8.08

###

target: HLA-A*02:01; test: IEDB peptide-MHC binding, purified MHC/competitive/fluorescence; filed as Kd, often an IC50 or EC50 that approximates it; bounds were set here for any values at or beyond the usual limits of such assays; details: source organism: Influenza A virus (A/Gf/HK/SSP607/2003(H9N2))
pKd: −log10 of the molar value.
quantity-kind: pKd

Prompt: // returns reported pKd for input AMITYITRK
Response: ≤ 4.70

###

target: HLA-B*40:01; assay: IEDB peptide-MHC binding, purified MHC/competitive/radioactivity; filed as Kd, often an IC50 or EC50 that approximates it; bounds were set here for any values at or beyond the usual limits of such assays; conditions: source organism: SARS coronavirus Tor2
quantity-kind: Kd (nM)
Quick reminder: number only, in nM, skip the unit.

The following sequences have reported results that may help.
NELTLIDFYL 231
QELGKYEQYI 13000
SEEVVENPTI 1050
IEELFYSYAT 1520
GECPKFVFPL 2.73
REIGFIVPGL 0.132

Prompt: Kd for GEILLLEWL ?
Response: 0.363

Prompt: And for KEFTRPLISG ?
Response: 1600

Prompt: And what about the sequence VDYGVRFFFY ?
Response: 16800

###

biological target: HLA-A*69:01; assay: IEDB peptide-MHC binding, purified MHC/direct/fluorescence; filed as Kd, often an IC50 or EC50 that approximates it; bounds were set here for any values at or beyond the usual limits of such assays; details: source organism: Francisella tularensis subsp. holarctica LVS
pKd: −log10 of the molar value.
quantity-kind: pKd

Prompt: Form field: reported pKd of KRINSLIKY
Response: ≤ 4.70
